Values from BindingDB's records for doi:10.1021/acs.jmedchem.9b01562

Assay text: Inhibition of NS5A in HCV genotype 1b infected in human HuH7.5/Con1/SG-Neo(I)-hRluc2aUb cells assessed as inhibition of replicon levels incubated for 72 hrs by luciferase reporter gene assay
Reported IC50 by item:
The response must be a number in nM with no trailing unit.

Sample records with IC50:
COC(=O)N[C@H](C(=O)N1CCC[C@H]1c1ncc(-c2ccc(-c3ccc(-c4ccc(-c5cnc([C@@H]6CCCN6C(=O)[C@@H](NC(=O)OC)C(C)C)[nH]5)cc4)cc3)cc2)[nH]1)C(C)C	0.136
COC(=O)N[C@H](C(=O)N1CCC[C@H]1c1ncc(-c2ccc3c(c2)OCCc2cc(-c4cnc([C@@H]5CCCN5C(=O)[C@@H](NC(=O)OC)C(C)C)[nH]4)sc2-3)[nH]1)C(C)C	0.022
COC(=O)N[C@H](C(=O)N1CCC[C@H]1c1ncc(-c2ccc3c(ccc4sc(-c5cnc([C@@H]6CCCN6C(=O)[C@@H](NC(=O)OC)C(C)C)[nH]5)nc43)c2)[nH]1)C(C)C	0.073
COC(=O)N[C@H](C(=O)N1CCC[C@H]1c1ncc(-c2ccc3c(c2)OCc2cc(-c4cnc([C@@H]5CCCN5C(=O)[C@@H](NC(=O)OC)C(C)C)[nH]4)sc2-3)[nH]1)C(C)C	0.02
CCc1nc([C@@H]2CCCN2C(=O)[C@@H](NC(=O)OC)C(C)C)[nH]c1-c1ccc2c(c1)OCC(C)(C)COc1cc(-c3[nH]c([C@@H]4CCCN4C(=O)[C@@H](NC(=O)OC)C(C)C)nc3CC)ccc1-2	0.219
COC(=O)N[C@H](C(=O)N1CCC[C@H]1c1ncc(-c2ccc3c(c2)OCCCOc2cc(-c4cnc([C@@H]5CCCN5C(=O)[C@@H](NC(=O)OC)C(C)C)[nH]4)ccc2-3)[nH]1)C(C)C	0.288

Now for the compound whose IC50 we want.
Note down IC50 recorded for `COC(=O)N[C@H](C(=O)N1CCC[C@H]1c1ncc(-c2ccc3c(c2)OCC(C)(C)COc2cc(-c4cnc([C@@H]5CCCN5C(=O)[C@@H](NC(=O)OC)C(C)C)[nH]4)ccc2-3)[nH]1)C(C)C` 0.069
